# TGT: human CB2 receptor (Homo sapiens, UniProt P34972)
# Construct: host or cells: CHO-K1 (Chinese hamster ovary) cells, stably transfected; membranes prepared in house
# Sequence (P34972 whole entry): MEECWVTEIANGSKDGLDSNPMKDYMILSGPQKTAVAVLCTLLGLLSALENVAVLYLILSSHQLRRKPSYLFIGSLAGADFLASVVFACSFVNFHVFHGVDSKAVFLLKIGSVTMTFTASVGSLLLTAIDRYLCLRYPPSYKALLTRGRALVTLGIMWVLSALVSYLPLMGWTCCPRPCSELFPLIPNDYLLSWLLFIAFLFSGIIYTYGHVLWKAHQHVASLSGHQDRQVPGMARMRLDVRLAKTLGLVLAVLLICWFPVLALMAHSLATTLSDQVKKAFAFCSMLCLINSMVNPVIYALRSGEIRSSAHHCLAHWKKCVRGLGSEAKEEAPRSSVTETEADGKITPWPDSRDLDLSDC
# PROCEDURE_DETAILS: CB2 radioligand ([3H]CP 55,940) competitive binding assay
OBSERVATION_TYPE: IC50

C=C(C)[C@@H]1CCC(C)=C[C@H]1c1c(O)cc(CCCCC)c2c1OC(C)OC2=O (some centres unmarked) [Compound 16d]    1 to 9.9 µM
C=C(C)[C@@H]1CCC(C)=C[C@H]1c1c(O)cc(CCCCC)c2c1OC(C)(COC)OC2=O (some centres unmarked) [Compound 11d]    10 to 19.9 µM
C=C(C)[C@@H]1CCC(C)=C[C@H]1c1c(O)cc(CCCCC)c2c1OC(CC(C)=O)(c1ccccc1)OC2=O (some centres unmarked) [Compound 12d]    1 to 9.9 µM
C=C(C)[C@@H]1CCC(C)=C[C@H]1c1c(O)cc(CCC)c2c1OC(CC(C)=O)(c1ccccc1)OC2=O (some centres unmarked) [Compound 24d]    1 to 9.9 µM
CCCCCc1cc(O)c(C2C=C(C)CCC2)c2c1C(=O)OC(C)(C)O2 (centres unmarked)    10 to 19.9 µM

---

Below, each entry is listed alongside its reported pIC50.
# TGT: human CB2 receptor (Homo sapiens, UniProt P34972)
# Construct: host or cells: CHO-K1 (Chinese hamster ovary) cells, stably transfected; membranes prepared in house
# PROCEDURE_DETAILS: CB2 radioligand ([3H]CP 55,940) competitive binding assay
# DETAILS: [3H]CP 55,940 displacement, membranes of CHO-K1 cells expressing human CB2 receptor; read-out: CB2 IC50
pIC50: −log10 of the molar value.
OBSERVATION_TYPE: pIC50

C=C(C)[C@@H]1CCC(C)=C[C@H]1c1c(O)cc(CCCCC)c2c1OC(CC)OC2=O (some centres unmarked) [Compound 17d]    > 6.00
C=C(C)[C@@H]1CCC(C)=C[C@H]1c1c(O)cc(CCCCC)c2c1OCOC2=O    5.00 to 6.00
CCCCCc1cc(O)c(C2C=C(C)CCC2)c2c1C(=O)OC(CC(C)=O)O2 (centres unmarked) [Compound 14c]    5.00 to 6.00
C=C(C)[C@@H]1CCC(C)=C[C@H]1c1c(O)cc(CCCCC)c2c1OC(CC(C)=O)OC2=O (some centres unmarked) [Compound 14d]    5.00 to 6.00
C=C(C)C1CCC(C)=CC1c1c(O)cc(CCCCC)c2c1OC(c1ccccc1)OC2=O (centres unmarked)    5.00 to 6.00
